- Test summary: Plasma pharmacokinetics after a single subcutaneous administration of LEN
- Format: in vivo, rhesus macaques
- Measurement parameters: male, Indian-origin (outbred), rhesus monkey, plasma, subcutaneous, 50 mg/kg, Plasma LEN (Mean), 50 mg/kg sc, week 9 post dose
Outcome measure: concentration at 9 week
Could you kindly put the unit after your number?

Lookup: For CC(C)(C#Cc1ccc(-c2ccc(Cl)c3c(NS(C)(=O)=O)nn(CC(F)(F)F)c23)c([C@H](Cc2cc(F)cc(F)c2)NC(=O)Cn2nc(C(F)(F)F)c3c2C(F)(F)[C@@H]2C[C@H]32)n1)S(C)(=O)=O , what is its reported concentration at 9 week?
Found: 0.0517 µM

* * *

- Test summary: Plasma pharmacokinetics after a single subcutaneous administration of LEN
- Assay type: in vivo, rhesus macaques
- Measurement parameters: male, Indian-origin (outbred), rhesus monkey, plasma, subcutaneous, 50 mg/kg, Plasma LEN, animal CO92, 50 mg/kg, week 18 post challenge
Outcome measure: concentration at 18 weeks post challenge

Lookup: For CC(C)(C#Cc1ccc(-c2ccc(Cl)c3c(NS(C)(=O)=O)nn(CC(F)(F)F)c23)c([C@H](Cc2cc(F)cc(F)c2)NC(=O)Cn2nc(C(F)(F)F)c3c2C(F)(F)[C@@H]2C[C@H]32)n1)S(C)(=O)=O , what is its reported concentration at 18 weeks post challenge?
Found: 13.1 nM

* * *

- Test summary: Plasma pharmacokinetics after a single subcutaneous administration of LEN
- Assay type: in vivo, rhesus macaques
- Measurement parameters: male, Indian-origin, outbred, rhesus monkey, plasma, subcutaneous, 50 mg/kg, Plasma LEN (Mean), 50 mg/kg sc, week 17 post dose
Outcome measure: concentration at 17 week (nM)
Your answer should be a plain number; it is taken to be in nM.

Lookup: For CC(C)(C#Cc1ccc(-c2ccc(Cl)c3c(NS(C)(=O)=O)nn(CC(F)(F)F)c23)c([C@H](Cc2cc(F)cc(F)c2)NC(=O)Cn2nc(C(F)(F)F)c3c2C(F)(F)[C@@H]2C[C@H]32)n1)S(C)(=O)=O [LEN, Lenacapavir] , what is its reported concentration at 17 week?
Found: 22.1

* * *

- Test summary: Plasma pharmacokinetics after a single subcutaneous administration of LEN
- Format: in vivo, rhesus macaques
- Measurement parameters: male, Indian-origin, outbred, rhesus monkey, plasma, subcutaneous, 5 mg/kg, Plasma LEN (Mean), 5 mg/kg sc, week 0.43 post dose
Outcome measure: concentration at 0.43 week

Lookup: For CC(C)(C#Cc1ccc(-c2ccc(Cl)c3c(NS(C)(=O)=O)nn(CC(F)(F)F)c23)c([C@H](Cc2cc(F)cc(F)c2)NC(=O)Cn2nc(C(F)(F)F)c3c2C(F)(F)[C@@H]2C[C@H]32)n1)S(C)(=O)=O , what is its reported concentration at 0.43 week?
Found: 5.72 nM

* * *

- Test summary: Plasma pharmacokinetics after a single subcutaneous administration of LEN
- Type: in vivo, rhesus macaques
- Measurement parameters: male, outbred Indian-origin, rhesus monkey, plasma, subcutaneous, 20 mg/kg, Plasma LEN (Mean), 20 mg/kg sc, week 3 post dose
Outcome measure: concentration at 3 weeks
Could you kindly put the unit after your number?

Lookup: For CC(C)(C#Cc1ccc(-c2ccc(Cl)c3c(NS(C)(=O)=O)nn(CC(F)(F)F)c23)c([C@H](Cc2cc(F)cc(F)c2)NC(=O)Cn2nc(C(F)(F)F)c3c2C(F)(F)[C@@H]2C[C@H]32)n1)S(C)(=O)=O , what is its reported concentration at 3 weeks?
Found: 21.2 nM

* * *

- Test summary: Plasma pharmacokinetics after a single subcutaneous administration of LEN
- Assay type: in vivo, rhesus macaques
- Measurement parameters: male, outbred Indian-origin, rhesus monkey, plasma, subcutaneous, 10 mg/kg, Plasma LEN (Mean), 10 mg/kg sc, week 7 post dose
Outcome measure: concentration at 7 weeks (nM)
Your answer should be a plain number; it is taken to be in nM.

Lookup: For CC(C)(C#Cc1ccc(-c2ccc(Cl)c3c(NS(C)(=O)=O)nn(CC(F)(F)F)c23)c([C@H](Cc2cc(F)cc(F)c2)NC(=O)Cn2nc(C(F)(F)F)c3c2C(F)(F)[C@@H]2C[C@H]32)n1)S(C)(=O)=O , what is its reported concentration at 7 weeks?
Found: 10.1

* * *

- Test summary: Plasma pharmacokinetics after a single subcutaneous administration of LEN
- Type: in vivo, rhesus macaques
- Measurement parameters: male, outbred Indian-origin, rhesus monkey, plasma, subcutaneous, 50 mg/kg, Plasma LEN (Mean), 50 mg/kg sc, week 3 post dose
Outcome measure: concentration at 3 weeks
Could you kindly put the unit after your number?

Lookup: For CC(C)(C#Cc1ccc(-c2ccc(Cl)c3c(NS(C)(=O)=O)nn(CC(F)(F)F)c23)c([C@H](Cc2cc(F)cc(F)c2)NC(=O)Cn2nc(C(F)(F)F)c3c2C(F)(F)[C@@H]2C[C@H]32)n1)S(C)(=O)=O [LEN, Lenacapavir] , what is its reported concentration at 3 weeks?
Found: 92.4 nM

* * *

- Test summary: Plasma pharmacokinetics after a single subcutaneous administration of LEN
- Type: in vivo, rhesus macaques
- Measurement parameters: male, Indian-origin, outbred, rhesus monkey, plasma, subcutaneous, 75 mg/kg, Plasma LEN (Mean), 75 mg/kg sc, week 23 post dose
- Experimental: All animals were housed at Bioqual Inc. For the in vivo SHIV stock titration study, 8 untreated outbred Indian-origin male rhesus macaques aged 3–5 years were challenged intrarectally per round for a total of 5 challenge rounds using increasing virus doses ranging from 0.625 to 100 TCID50, with the 100 TCID50 round performed twice for increased resolution (Supplemental Table 2). Plasma viral load was measured to confirm the infection status. […]
Outcome measure: concentration at 23 week (nM)
Your answer should be a plain number; it is taken to be in nM.

Lookup: For CC(C)(C#Cc1ccc(-c2ccc(Cl)c3c(NS(C)(=O)=O)nn(CC(F)(F)F)c23)c([C@H](Cc2cc(F)cc(F)c2)NC(=O)Cn2nc(C(F)(F)F)c3c2C(F)(F)[C@@H]2C[C@H]32)n1)S(C)(=O)=O , what is its reported concentration at 23 week?
Found: 10.3

* * *

- Test summary: Plasma pharmacokinetics after a single subcutaneous administration of LEN
- Type: in vivo, rhesus macaques
- Measurement parameters: male, outbred Indian-origin, rhesus monkey, plasma, subcutaneous, 10 mg/kg, Plasma LEN (Mean), 10 mg/kg sc, week 5 post dose
Outcome measure: concentration at 5 weeks (nM)
Your answer should be a plain number; it is taken to be in nM.

Lookup: For CC(C)(C#Cc1ccc(-c2ccc(Cl)c3c(NS(C)(=O)=O)nn(CC(F)(F)F)c23)c([C@H](Cc2cc(F)cc(F)c2)NC(=O)Cn2nc(C(F)(F)F)c3c2C(F)(F)[C@@H]2C[C@H]32)n1)S(C)(=O)=O [LEN, Lenacapavir] , what is its reported concentration at 5 weeks?
Found: 12.8

* * *

- Test summary: Plasma pharmacokinetics after a single subcutaneous administration of LEN
- Type: in vivo, rhesus macaques
- Measurement parameters: male, Indian-origin, outbred, rhesus monkey, plasma, subcutaneous, 50 mg/kg, Plasma LEN (Mean), 50 mg/kg sc, week 21 post dose
Outcome measure: concentration at 21 week (nM)
Your answer should be a plain number; it is taken to be in nM.

Lookup: For CC(C)(C#Cc1ccc(-c2ccc(Cl)c3c(NS(C)(=O)=O)nn(CC(F)(F)F)c23)c([C@H](Cc2cc(F)cc(F)c2)NC(=O)Cn2nc(C(F)(F)F)c3c2C(F)(F)[C@@H]2C[C@H]32)n1)S(C)(=O)=O , what is its reported concentration at 21 week?
Found: 6.49

* * *

- Test summary: Plasma pharmacokinetics after a single subcutaneous administration of LEN
- Format: in vivo, rhesus macaques
- Measurement parameters: male, Indian-origin, outbred, rhesus monkey, plasma, subcutaneous, 50 mg/kg, Plasma LEN (Mean), 50 mg/kg sc, week 0.43 post dose
Outcome measure: concentration at 0.43 week (nM)
Your answer should be a plain number; it is taken to be in nM.

Lookup: For CC(C)(C#Cc1ccc(-c2ccc(Cl)c3c(NS(C)(=O)=O)nn(CC(F)(F)F)c23)c([C@H](Cc2cc(F)cc(F)c2)NC(=O)Cn2nc(C(F)(F)F)c3c2C(F)(F)[C@@H]2C[C@H]32)n1)S(C)(=O)=O [LEN, Lenacapavir] , what is its reported concentration at 0.43 week?
Found: 79

* * *

- Test summary: Plasma pharmacokinetics after a single subcutaneous administration of LEN
- Format: in vivo, rhesus macaques
- Measurement parameters: male, Indian-origin, outbred, rhesus monkey, plasma, subcutaneous, 75 mg/kg, Plasma LEN (Mean), 75 mg/kg sc, week 1 post dose
Outcome measure: concentration at 1 week (nM)
Your answer should be a plain number; it is taken to be in nM.

Lookup: For CC(C)(C#Cc1ccc(-c2ccc(Cl)c3c(NS(C)(=O)=O)nn(CC(F)(F)F)c23)c([C@H](Cc2cc(F)cc(F)c2)NC(=O)Cn2nc(C(F)(F)F)c3c2C(F)(F)[C@@H]2C[C@H]32)n1)S(C)(=O)=O [LEN, Lenacapavir] , what is its reported concentration at 1 week?
Found: 162
